Target chain: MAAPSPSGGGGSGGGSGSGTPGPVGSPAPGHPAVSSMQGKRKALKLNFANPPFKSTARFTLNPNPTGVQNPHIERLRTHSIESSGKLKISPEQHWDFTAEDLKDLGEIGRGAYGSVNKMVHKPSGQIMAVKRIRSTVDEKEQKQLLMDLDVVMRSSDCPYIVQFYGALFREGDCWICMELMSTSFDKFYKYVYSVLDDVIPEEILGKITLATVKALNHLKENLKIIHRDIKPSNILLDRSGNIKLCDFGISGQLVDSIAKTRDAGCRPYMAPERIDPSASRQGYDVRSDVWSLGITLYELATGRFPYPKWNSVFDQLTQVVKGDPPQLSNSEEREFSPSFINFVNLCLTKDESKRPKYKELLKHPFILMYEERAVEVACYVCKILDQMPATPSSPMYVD
pIC50: −log10 of the molar value.
Kindly supply the reported pIC50 values for the records listed here.

Solved cases below.
compound | reported
CCCS(=O)(=O)Nc1ccc(F)c(C(=O)c2c[nH]c3ncc(-c4ccc(C5CCC5)cc4)cc23)c1F [Example 82] | 6.00 to 7.00
CCCS(=O)(=O)Nc1ccc(F)c(C(=O)c2c[nH]c3ncc(-c4cccnn4)cc23)c1F [Example 48] | 5.00 to 6.00
CCCS(=O)(=O)Nc1c(F)ccc(C(=O)c2c[nH]c3ncc(-c4cnc(N5CCOCC5)nc4)cc23)c1F [Example 188] | > 7.00
CCCS(=O)(=O)Nc1c(F)ccc(C(=O)c2c[nH]c3ncc(-c4cnc(N5CC[C@@H](O)C5)nc4)cc23)c1F [Example 204] | 6.00 to 7.00
CCCS(=O)(=O)Nc1ccc(F)c(C(=O)c2c[nH]c3ncc(-c4nc[nH]n4)cc23)c1F [Example 85] | 5.00 to 6.00
CCCS(=O)(=O)Nc1ccc(F)c(C(=O)c2c[nH]c3ncc(-c4ccc(SC(F)(F)F)cc4)cc23)c1F [Example 78] | 6.00 to 7.00

Quick request: pIC50 for each listed item, please.
1. CS(=O)(=O)Nc1c(F)ccc(C(=O)c2c[nH]c3ncc(-c4ccc(Cl)cc4)cc23)c1F [Example 149]
2. CCCS(=O)(=O)Nc1ccc(F)c(C(=O)c2c[nH]c3ncc(N4CCOCC4)cc23)c1F [Example 70]
3. CCCS(=O)(=O)Nc1c(F)ccc(C(=O)c2c[nH]c3ncc(-c4cccc(C#N)c4)cc23)c1F [Example 143]
4. CCCS(=O)(=O)Nc1c(F)ccc(C(=O)c2c[nH]c3ncc(-c4cnc(N5CCN(CCO)CC5)nc4)cc23)c1F [Example 198]

Solution:
["6.00 to 7.00", "6.00 to 7.00", "> 7.00", "6.00 to 7.00"]

# batch size: 3; output pIC50 per entry
1. CCCS(=O)(=O)Nc1c(F)ccc(C(=O)c2c[nH]c3ncc(-c4cnc(NCCOC)nc4)cc23)c1F [Example 187]
2. CNc1ncc(-c2cnc3[nH]cc(C(=O)c4ccc(F)c(NS(=O)(=O)CCC(F)(F)F)c4F)c3c2)cn1 [Example 177]
3. CCCS(=O)(=O)Nc1ccc(F)c(C(=O)c2c[nH]c3ncc(-c4cccc(C(F)(F)F)c4)cc23)c1F [Example 117]

Solution:
6.00 to 7.00
> 7.00
5.00 to 6.00

Each compound below has a recorded value; state its pIC50.
1. CCCS(=O)(=O)Nc1c(F)ccc(C(=O)c2c[nH]c3ncc(-c4cnc(OC)nc4OC)cc23)c1F [Example 236]
2. CCCS(=O)(=O)Nc1c(F)ccc(C(=O)c2c[nH]c3ncc(-c4ccc(Cl)cc4C)cc23)c1F [Example 225]
3. O=C(c1c(F)ccc(NS(=O)(=O)CCC(F)(F)F)c1F)c1c[nH]c2ncc(-c3ccc(N4CCOCC4)nc3)cc12 [Example 79]

Solution:
1. > 7.00
2. > 7.00
3. > 7.00

Please supply pIC50 for each of the following items, keeping them in order.
1. CCCS(=O)(=O)Nc1c(F)ccc(C(=O)c2c[nH]c3ncc(-c4cnc(C(C)(C)C)nc4)cc23)c1F [Example 196]
2. CCCCS(=O)(=O)Nc1c(F)ccc(C(=O)c2c[nH]c3ncc(-c4ccc(OC)cc4Cl)cc23)c1F [Example 226]
3. CCCS(=O)(=O)Nc1c(F)ccc(C(=O)c2c[nH]c3ncc(-c4cnc(SC)nc4)cc23)c1F [Example 195]

Solution:
> 7.00
> 7.00
> 7.00

---

tested.on: MKK4 (Homo sapiens)
Construct: S84/D399; host or cells: HEK-293
Sequence (P45985 84-399): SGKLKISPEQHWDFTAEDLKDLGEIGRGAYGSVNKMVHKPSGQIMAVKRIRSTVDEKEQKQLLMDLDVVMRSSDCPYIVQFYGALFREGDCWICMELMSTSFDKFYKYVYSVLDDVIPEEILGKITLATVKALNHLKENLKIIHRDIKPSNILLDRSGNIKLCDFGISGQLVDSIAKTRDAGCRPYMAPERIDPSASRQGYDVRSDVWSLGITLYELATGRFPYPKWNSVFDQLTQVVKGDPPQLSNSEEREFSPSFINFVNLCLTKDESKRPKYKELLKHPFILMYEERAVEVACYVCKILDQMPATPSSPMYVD
experimental.protocol: KINOMEscan competition binding assay, MKK4
experimental.parameters: residual percent of control binding (PoC) at 100 nM
measured.quantity: MKK4 [% Ctrl @ 100 nM

Examples from the recorded data:
compound | reported
O=C(c1c(F)ccc(NS(=O)(=O)Cc2ccccc2)c1F)c1c[nH]c2ncc(-c3ccc(OCC(O)CO)cc3Cl)cc12 (stereo not drawn) | ++ (1 ≤ PoC < 3)
O=C(c1cccc(NS(=O)(=O)Cc2ccccc2)c1F)c1c[nH]c2ncc(-c3ccc(Cl)cc3)cc12 | + (3 ≤ PoC < 30)
CCCS(=O)(=O)Nc1ccc(F)c(C(=O)c2c[nH]c3ncc(-c4cccc(Cl)c4)cc23)c1F | + (3 ≤ PoC < 30)
CCCS(=O)(=O)Nc1c(F)ccc(C(=O)c2c[nH]c3ncc(-c4ccc(N5CCC5)nc4)cc23)c1F | +++ (PoC < 1)

For each listed entry, give its MKK4 [% Ctrl @ 100 nM.
1. CCCS(=O)(=O)Nc1ccc(F)c(C(=O)c2c[nH]c3ncc(-c4ccc(S(N)(=O)=O)nc4)cc23)c1F
2. CCCS(=O)(=O)Nc1ccc(F)c(C(=O)c2c[nH]c3ncc(-c4cccc(O)c4)cc23)c1F

Solution:
1: +++ (PoC < 1); 2: ++ (1 ≤ PoC < 3)

---

tested.on: JNK1 (Homo sapiens)
Sequence (P45983 1-384 isoform P45983-2): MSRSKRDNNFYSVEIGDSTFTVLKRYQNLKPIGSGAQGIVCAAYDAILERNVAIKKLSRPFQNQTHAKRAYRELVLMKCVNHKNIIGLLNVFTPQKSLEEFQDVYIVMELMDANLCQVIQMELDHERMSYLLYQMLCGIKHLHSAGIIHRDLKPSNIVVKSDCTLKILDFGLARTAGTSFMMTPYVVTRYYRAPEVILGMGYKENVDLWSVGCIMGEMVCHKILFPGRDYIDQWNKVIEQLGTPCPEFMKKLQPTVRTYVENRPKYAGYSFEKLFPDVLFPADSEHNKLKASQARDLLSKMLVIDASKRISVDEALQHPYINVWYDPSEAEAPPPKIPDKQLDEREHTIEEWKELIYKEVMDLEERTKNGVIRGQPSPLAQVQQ
experimental.protocol: KINOMEscan competition binding assay, JNK1
Set-up: M1/Q384; host or cells: HEK-293
experimental.parameters: ratio PoC (off-target)/PoC (MKK4)
measured.quantity: selectivity based on % Ctrl @100 nM vs. JNK1

compound | tested.on | reported
O=C(c1cccc(NS(=O)(=O)Cc2ccccc2)c1F)c1c[nH]c2ncc(-c3ccncc3)cc12 | JNK1 (Homo sapiens) | +++ (Ratio > 100)
CCCS(=O)(=O)Nc1ccc(F)c(C(=O)c2c[nH]c3ncc(-c4ccc(OC)c(OC)c4)cc23)c1F | JNK1 (Homo sapiens) | ++ (100 ≥ ratio > 10)
CCCS(=O)(=O)Nc1ccc(F)c(C(=O)c2c[nH]c3ncc(-c4ccc(OCC5COC(C)(C)O5)cc4)cc23)c1F (stereo not shown) | JNK1 (Homo sapiens) | ++ (100 ≥ ratio > 10)
CN(C)c1ncc(-c2cnc3[nH]cc(C(=O)c4ccc(F)c(NS(=O)(=O)CCC(F)(F)F)c4F)c3c2)cn1 | JNK1 (Homo sapiens) | +++ (Ratio > 100)
COc1ccc(-c2cnc3[nH]cc(C(=O)c4ccc(F)c(NS(=O)(=O)CCC(F)(F)F)c4F)c3c2)cn1 | JNK1 (Homo sapiens) | +++ (Ratio > 100)

The following compounds each have a reported value; give each one's selectivity based on % Ctrl @100 nM vs. JNK1.
1. CCCS(=O)(=O)Nc1ccc(F)c(C(=O)c2c[nH]c3ncc(-c4ccc(OC)cc4OC)cc23)c1F
2. CCCS(=O)(=O)Nc1ccc(F)c(C(=O)c2c[nH]c3ncc(-c4ccc(S(N)(=O)=O)nc4)cc23)c1F
3. O=C(c1ccc(F)c(NS(=O)(=O)CCC(F)(F)F)c1F)c1c[nH]c2ncc(-c3cnc(N4CCCCC4)nc3)cc12
4. CCCS(=O)(=O)Nc1c(F)ccc(C(=O)c2c[nH]c3ncc(-c4cnc(C(F)(F)F)nc4)cc23)c1F
5. CCCS(=O)(=O)Nc1ccc(F)c(C(=O)c2c[nH]c3ncc(-c4ccccc4OC)cc23)c1F
6. CCCS(=O)(=O)Nc1ccc(F)c(C(=O)c2c[nH]c3ncc(-c4cccc(OC)c4)cc23)c1F
7. CS(=O)(=O)Nc1c(F)ccc(C(=O)c2c[nH]c3ncc(-c4cccnc4)cc23)c1F
8. CCCCS(=O)(=O)Nc1ccc(F)c(C(=O)c2c[nH]c3ncc(-c4ccc(OC)cc4Cl)cc23)c1F

Solution:
1: ++ (100 ≥ ratio > 10); 2: +++ (Ratio > 100); 3: +++ (Ratio > 100); 4: +++ (Ratio > 100); 5: ++ (100 ≥ ratio > 10); 6: ++ (100 ≥ ratio > 10); 7: +++ (Ratio > 100); 8: ++ (100 ≥ ratio > 10)

For each of the compounds below, note its selectivity based on % Ctrl @100 nM vs. JNK1.
1. O=C(c1c(F)ccc(NS(=O)(=O)CCC(F)(F)F)c1F)c1c[nH]c2ncc(-c3ccc(N4CCOCC4)nc3)cc12
2. CCCS(=O)(=O)Nc1ccc(F)c(C(=O)c2c[nH]c3ncc(-c4ccc(S(C)(=O)=O)nc4)cc23)c1F
3. CCCS(=O)(=O)Nc1c(F)ccc(C(=O)c2c[nH]c3ncc(-c4cnc(Cl)cn4)cc23)c1F
4. CCCCS(=O)(=O)Nc1ccc(F)c(C(=O)c2c[nH]c3ncc(-c4ccc(F)cc4C)cc23)c1F

Solution:
["+++ (Ratio > 100)", "+++ (Ratio > 100)", "+++ (Ratio > 100)", "++ (100 ≥ ratio > 10)"]
